biological target: Tyrosine-protein kinase ABL1 (Mus musculus) (UniProt P00520); test: Inhibition of mouse recombinant Abl expressed in Escherichia coli at 10 uM by fluorescence polarization
Sequence (P00520 whole entry): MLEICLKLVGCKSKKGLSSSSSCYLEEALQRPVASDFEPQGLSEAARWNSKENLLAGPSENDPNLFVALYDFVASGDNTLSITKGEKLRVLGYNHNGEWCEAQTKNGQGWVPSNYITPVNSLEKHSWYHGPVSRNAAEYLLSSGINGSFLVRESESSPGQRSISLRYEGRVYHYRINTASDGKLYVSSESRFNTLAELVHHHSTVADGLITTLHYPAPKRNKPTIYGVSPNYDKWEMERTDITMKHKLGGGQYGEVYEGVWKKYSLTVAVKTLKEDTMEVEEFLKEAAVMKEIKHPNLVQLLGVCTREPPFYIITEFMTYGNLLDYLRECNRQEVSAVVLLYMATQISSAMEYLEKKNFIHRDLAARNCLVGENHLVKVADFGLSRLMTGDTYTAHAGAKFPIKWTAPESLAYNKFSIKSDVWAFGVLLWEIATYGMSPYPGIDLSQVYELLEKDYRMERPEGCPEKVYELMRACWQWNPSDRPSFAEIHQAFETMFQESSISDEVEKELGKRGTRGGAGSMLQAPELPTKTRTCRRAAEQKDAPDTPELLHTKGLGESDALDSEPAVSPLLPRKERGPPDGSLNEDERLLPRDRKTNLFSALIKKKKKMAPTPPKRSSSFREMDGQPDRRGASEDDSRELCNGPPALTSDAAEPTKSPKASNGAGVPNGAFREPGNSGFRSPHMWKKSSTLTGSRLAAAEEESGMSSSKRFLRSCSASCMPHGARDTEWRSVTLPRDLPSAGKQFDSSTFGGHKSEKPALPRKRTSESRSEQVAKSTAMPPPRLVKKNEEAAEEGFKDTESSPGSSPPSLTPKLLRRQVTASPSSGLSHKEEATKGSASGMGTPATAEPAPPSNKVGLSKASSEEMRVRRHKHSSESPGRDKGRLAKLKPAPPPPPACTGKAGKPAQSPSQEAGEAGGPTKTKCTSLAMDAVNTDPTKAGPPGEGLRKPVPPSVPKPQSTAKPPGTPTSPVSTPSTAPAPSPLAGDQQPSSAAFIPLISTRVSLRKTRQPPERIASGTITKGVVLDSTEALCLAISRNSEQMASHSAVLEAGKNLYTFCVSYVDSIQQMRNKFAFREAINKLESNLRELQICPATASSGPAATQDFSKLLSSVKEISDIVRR
I'd be grateful if you could share measured inhibition for these entries.

q: Tell me the measured inhibition of "CC(=O)c1csc(C(=O)CCl)c1" , please.
a: < 10%

q: Tell me the measured inhibition of "O=C(CCl)c1c(Br)sc(Cl)c1Cl" , please.
a: < 10%

q: Tell me the measured inhibition of "O=C(CCl)c1ccc(Cl)s1" , please.
a: < 10%

q: Tell me the measured inhibition of "O=C(CCl)c1ccc(Br)s1" , please.
a: < 10%

q: Tell me the measured inhibition of "Cc1sc(C(=O)CCl)cc1C(=O)CCl" , please.
a: < 10%

q: Tell me the measured inhibition of "O=C(CCl)c1cc(Cl)sc1Cl" , please.
a: < 10%

q: Tell me the measured inhibition of "O=C(CCl)c1scc(Br)c1Br" , please.
a: < 10%

q: Tell me the measured inhibition of "O=C(CCl)c1csc(C(=O)CCl)c1" , please.
a: < 10%

q: Tell me the measured inhibition of "O=C(CBr)c1cc(Br)c(Br)s1" , please.
a: < 10%

q: Tell me the measured inhibition of "O=C(CBr)c1scc(Br)c1Br" , please.
a: < 10%

q: Tell me the measured inhibition of "O=C(CCl)c1cscc1Cl" , please.
a: < 10%

q: Tell me the measured inhibition of "O=C(CCl)c1cc(Br)c(Br)s1" , please.
a: < 10%

----------
organism: Rattus norvegicus; assay: Displacement of [3H]cystisine from alpha-BGTX insensitive nicotinic acetylcholine receptor in rat cerebral cortex at 10 uM; format: tissue-based
measurement.type: inhibition

q: Tell me the measured inhibition of "O=C(CCl)c1scc(Br)c1Br" , please.
a: < 10%

q: Tell me the measured inhibition of "O=C(CCl)c1ccc(Br)s1" , please.
a: < 10%

q: Tell me the measured inhibition of "O=C(CCl)c1ccc(Cl)s1" , please.
a: < 10%

q: Tell me the measured inhibition of "Cc1sc(C(=O)CCl)cc1C(=O)CCl" , please.
a: < 10%

q: Tell me the measured inhibition of "O=C(CBr)c1scc(Br)c1Br" , please.
a: 22%

q: Tell me the measured inhibition of "O=C(CCl)c1cc(Cl)sc1Cl" , please.
a: < 10%

q: Tell me the measured inhibition of "O=C(CCl)c1csc(C(=O)CCl)c1" , please.
a: < 10%

q: Tell me the measured inhibition of "CC(=O)c1csc(C(=O)CCl)c1" , please.
a: 17%

q: Tell me the measured inhibition of "O=C(CCl)c1cc(Br)c(Br)s1" , please.
a: < 10%

q: Tell me the measured inhibition of "O=C(CCl)c1cscc1Cl" , please.
a: < 10%

q: Tell me the measured inhibition of "O=C(CBr)c1cc(Br)c(Br)s1" , please.
a: < 10%

q: Tell me the measured inhibition of "O=C(CCl)c1c(Br)sc(Cl)c1Cl" , please.
a: < 10%

----------
I'd be grateful if you could share measured inhibition for these entries.
organism: Rattus norvegicus; assay: Displacement of [3H]AMPA from AMPA receptor in rat cerebral cortex at 10 uM; type: tissue-based

q: Tell me the measured inhibition of "O=C(CCl)c1cscc1Cl" , please.
a: < 10%

q: Tell me the measured inhibition of "O=C(CCl)c1cc(Cl)sc1Cl" , please.
a: 17%

q: Tell me the measured inhibition of "O=C(CCl)c1cc(Br)c(Br)s1" , please.
a: < 10%

q: Tell me the measured inhibition of "Cc1sc(C(=O)CCl)cc1C(=O)CCl" , please.
a: < 10%

q: Tell me the measured inhibition of "O=C(CCl)c1scc(Br)c1Br" , please.
a: < 10%

q: Tell me the measured inhibition of "CC(=O)c1csc(C(=O)CCl)c1" , please.
a: < 10%

q: Tell me the measured inhibition of "O=C(CCl)c1csc(C(=O)CCl)c1" , please.
a: 25%

q: Tell me the measured inhibition of "O=C(CBr)c1cc(Br)c(Br)s1" , please.
a: < 10%

q: Tell me the measured inhibition of "O=C(CBr)c1scc(Br)c1Br" , please.
a: < 10%

q: Tell me the measured inhibition of "O=C(CCl)c1ccc(Cl)s1" , please.
a: 17%

q: Tell me the measured inhibition of "O=C(CCl)c1c(Br)sc(Cl)c1Cl" , please.
a: < 10%

q: Tell me the measured inhibition of "O=C(CCl)c1ccc(Br)s1" , please.
a: < 10%
